# assay_info: Phenomenex Kinetex XB-C18, 100 × 2.1 mm, 1.7 µm, 35 °C, 0.3 mL/min, estimated dead time 0.73 min; A: water + 0.1% formic acid; B: acetonitrile + 0.1% formic acid; gradient (min/%B) 0/5 1/5 2/10 9/33 15/46 16/70 21/90 22/90
# condition: stereoisomer not certain
readout_label: LC retention time (min)

Recorded LC retention time, per entry:
[in] Name the recorded LC retention time for COc1cc(C=CCO)cc(OC)c1OC1OC(CO)C(O)C(O)C1O (stereo not given) .
[out] 3.9

[in] Name the recorded LC retention time for CC(C)=CCCC(C)(OC1OC(COC2OC(CO)C(O)C(O)C2O)C(O)C(O)C1O)C1CCC2(C)C1C(O)CC1C3(C)CCC(O)C(C)(C)C3C(OC3OC(CO)C(O)C(O)C3O)CC12C (stereo not given) .
[out] 7.09

[in] Name the recorded LC retention time for CC(C)=CCCC(C)(OC1OC(CO)C(O)C(O)C1O)C1CCC2(C)C1C(O)CC1C3(C)CCC(OC4OC(CO)C(O)C(O)C4OC4OC(CO)C(O)C(O)C4O)C(C)(C)C3C(O)CC12C (stereo not given) .
[out] 9.5

[in] Name the recorded LC retention time for C=C(CCC=C(C)C)C1CCC2(C)C1C(O)CC1C3(C)CCC(O)C(C)(C)C3C(OC3OC(CO)C(O)C(O)C3OC3OCC(O)C(O)C3O)CC12C (stereo not given) .
[out] 14

[in] Name the recorded LC retention time for O=C(O)CC(C1=C(O)C(=C(O)C=Cc2ccc(O)cc2)C(=O)C(O)(C2OC(CO)C(O)C(O)C2O)C1=O)c1ccc(O)cc1 (stereo not given) .
[out] 7.95

I: O=c1cc(-c2ccc(O)c(O)c2)oc2cc(O)cc(O)c12
II: CC(C)=CCCC(C)(O)C1CCC2(C)C1C(O)CC1C3(C)CCC(O)C(C)(C)C3C(O)CC12C (stereo not given)
[in] When the recorded LC retention time values are compared, which is smaller: that of I or that of II ? Mark your answer with the label of the selected entry.
[out] I

A: CC(C)=CCCC(C)(O)C1CCC2(C)C1C(O)CC1C3(C)CCC(O)C(C)(C)C3C(OC3OC(CO)C(O)C(O)C3OC3OC(CO)C(O)C(O)C3O)CC12C (stereo not given)
B: CCCC=C1OC(=O)C2=C1CCC1C3C=C4C(=O)OC(=CCCC)C4(CC3)C21 (stereo not given)
C: O=C1C(=C(O)C=Cc2ccc(O)cc2)C(O)=C(C2OC(CO)C(O)C(O)C2O)C(=O)C1(O)C1OC(CO)C(O)C(O)C1O (stereo not given)
D: O=c1cc(-c2ccc(O)c(O)c2)oc2cc(OC3OC(CO)C(O)C(O)C3O)cc(O)c12 (stereo not given)
[in] Rank by LC retention time (largest to smallest). Form entry: labels listed in requested order.
[out] B, A, D, C
(B: 18.2 min, A: 10.1 min, D: 6.28 min, C: 4.17 min)

A: CC(C)=CCCC(C)(OC1OC(CO)C(O)C(O)C1O)C1CCC2(C)C1C(O)CC1C3(C)CCC(OC4OC(CO)C(O)C(O)C4OC4OC(CO)C(O)C(O)C4O)C(C)(C)C3=CC(O)C12C (stereo not given)
B: O=c1c(O)c(-c2ccc(O)c(O)c2)oc2cc(OC3OC(CO)C(O)C(O)C3O)cc(O)c12 (stereo not given)
[in] When the recorded LC retention time values are compared, which is smaller: that of A or that of B ? Mark your answer with the label of the selected entry.
[out] B
